Property: log10(GI50); scope: individual molecules
System: MCF7
ASSAY INFO: Cytotoxicity against human MCF7 cells assessed as reduction in cell viability after 72 hrs by MTT assay
Format: functional
CONDITION LABEL: MCF7, 72 h
READOUT KIND: log10(GI50) (log10 of the value in µM)

>  <SUBSTANCE SMILES>
C[C@H]1[C@H](C)CC[C@]2(C(=O)O)CC[C@]3(C)C(=CC[C@@H]4[C@@]5(C)C[C@@H](O)[C@H](O)C(C)(C)[C@@H]5CC[C@]43C)[C@H]12

>  <MEASUREMENT TARGET>
MCF7

>  <RECORDED RESULT>
1.79

$$$$
>  <SUBSTANCE SMILES>
COc1cc(/C=C/C(=O)O[C@H]2[C@H](O)C[C@]3(C)[C@H]4CC=C5[C@@H]6CC(C)(C)CC[C@]6(C(=O)O)CC[C@@]5(C)[C@]4(C)CC[C@H]3C2(C)C)ccc1O

>  <MEASUREMENT TARGET>
MCF7

>  <RECORDED RESULT>
1.83

$$$$
>  <SUBSTANCE SMILES>
C[C@H]1[C@H](C)CC[C@]2(CO)CC[C@]3(C)C(=CC[C@@H]4[C@@]5(C)CC[C@H](O)C(C)(C)[C@@H]5CC[C@]43C)[C@H]12

>  <MEASUREMENT TARGET>
MCF7

>  <RECORDED RESULT>
1.97

$$$$
>  <SUBSTANCE SMILES>
COc1cc(O)ccc1/C=C/C(=O)c1ccc(O)cc1

>  <MEASUREMENT TARGET>
MCF7

>  <RECORDED RESULT>
1.63

$$$$
>  <SUBSTANCE SMILES>
C=C1C(=O)[C@]23C[C@H]1CC[C@H]2[C@]1(C)CC[C@@H](O)C(C)(C)[C@H]1C[C@@H]3O

>  <MEASUREMENT TARGET>
MCF7

>  <RECORDED RESULT>
0.54

$$$$
>  <SUBSTANCE SMILES>
CO[C@@H]1C[C@]2(C)[C@H]3CC=C4[C@H]5[C@](C(=O)O)(CC[C@@H](C)[C@@]5(C)O)CC[C@@]4(C)[C@]3(C)CC[C@H]2C(C)(C)CO1

>  <MEASUREMENT TARGET>
MCF7

>  <RECORDED RESULT>
1.49

$$$$
>  <SUBSTANCE SMILES>
CC1(C)CC[C@]2(C(=O)O)CC[C@]3(C)C(=CC[C@@H]4[C@@]5(C)C[C@@H](O)[C@H](O)[C@](C)(CO)[C@@H]5CC[C@]43C)[C@@H]2C1

>  <MEASUREMENT TARGET>
MCF7

>  <RECORDED RESULT>
1.15

$$$$
>  <SUBSTANCE SMILES>
C[C@H]1[C@H](C)CC[C@]2(C(=O)O)CC[C@]3(C)C(=CC[C@@H]4[C@@]5(C)CCC(=O)C(C)(C)[C@@H]5CC[C@]43C)[C@H]12

>  <MEASUREMENT TARGET>
MCF7

>  <RECORDED RESULT>
1.08

$$$$
>  <SUBSTANCE SMILES>
C=C1C(=O)O[C@H]2C3=CC[C@@H]4C(C)(C)C(=O)CC[C@@]4(C)[C@@H]3CC[C@@H]12

>  <MEASUREMENT TARGET>
MCF7

>  <RECORDED RESULT>
1.18

$$$$
